SYSTEM: Aromatase (Homo sapiens) (UniProt P11511)
Sequence (P11511 whole entry, looked up): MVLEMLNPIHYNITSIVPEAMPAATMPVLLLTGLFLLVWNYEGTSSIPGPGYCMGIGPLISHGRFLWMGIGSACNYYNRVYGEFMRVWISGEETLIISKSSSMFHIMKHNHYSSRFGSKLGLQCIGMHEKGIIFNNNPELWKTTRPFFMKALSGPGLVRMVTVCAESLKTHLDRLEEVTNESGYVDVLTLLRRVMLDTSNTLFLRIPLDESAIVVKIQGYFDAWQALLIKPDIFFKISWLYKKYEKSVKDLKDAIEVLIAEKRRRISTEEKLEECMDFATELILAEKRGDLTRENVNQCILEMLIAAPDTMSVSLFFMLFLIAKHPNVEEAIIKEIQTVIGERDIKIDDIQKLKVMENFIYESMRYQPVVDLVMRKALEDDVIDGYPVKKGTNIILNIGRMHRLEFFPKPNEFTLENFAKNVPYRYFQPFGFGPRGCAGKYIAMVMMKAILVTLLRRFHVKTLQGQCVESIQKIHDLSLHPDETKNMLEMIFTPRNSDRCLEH
ASSAY_COMMENT: qHTS assay to identify aromatase inhibitors (AID 743083); also: nearly all actives have a fitted effect of over 55% in size
SETTINGS: MCF-7 aro ERE, testosterone-driven ERE luciferase, 24 h; series mostly up to 70.3 µM
Records with an inconclusive call do not appear. The source made the active and inactive calls. Calls follow the shape of the dose curve; as a rule, active = well fitted inhibition curve with a large enough effect in the repeat runs; inconclusive = weak or mixed curves; inactive = no such curve, though single readings can be large or run the other way.
Classes used: Y = active, N = inactive

[
  {
    "COMPOUND": "CCOC(=O)CCN(SN(C)C(=O)Oc1cccc2c1OC(C)(C)C2)C(C)C",
    "CATEGORY": "N"
  },
  {
    "COMPOUND": "C[C@]12C/C(=C/O)C(=O)C[C@@H]1CC[C@@H]1[C@@H]2CC[C@@]2(C)[C@H]1CC[C@]2(C)O",
    "CATEGORY": "N"
  },
  {
    "COMPOUND": "CC(C)(C)c1ccc(OP(=O)(Oc2ccccc2)Oc2ccccc2)cc1",
    "CATEGORY": "N"
  },
  {
    "COMPOUND": "Cc1cc2c3c(c1)C(c1ccccc1)=N[C@@H](NC(=O)c1ccncc1)C(=O)N3CC2",
    "CATEGORY": "N"
  },
  {
    "COMPOUND": "CN1CCc2cc(Cl)c(O)cc2[C@H]2c3ccccc3CC[C@@H]21",
    "CATEGORY": "N"
  },
  {
    "COMPOUND": "ClC(Cl)C(Cl)(Cl)Cl",
    "CATEGORY": "N"
  },
  {
    "COMPOUND": "CO/N=C(/C1=NOCCO1)c1ccccc1Oc1ncnc(Oc2ccccc2Cl)c1F",
    "CATEGORY": "Y"
  },
  {
    "COMPOUND": "ClCBr",
    "CATEGORY": "N"
  },
  {
    "COMPOUND": "[Cl-].[Cl-].[Sn+2]",
    "CATEGORY": "N"
  },
  {
    "COMPOUND": "CCCCON=O",
    "CATEGORY": "N"
  },
  {
    "COMPOUND": "COc1ccc2[nH]cc(CCN(C(C)C)C(C)C)c2c1",
    "CATEGORY": "N"
  },
  {
    "COMPOUND": "CN=C=O",
    "CATEGORY": "N"
  },
  {
    "COMPOUND": "NC(=O)C(Cl)Cl",
    "CATEGORY": "N"
  },
  {
    "COMPOUND": "CC(C)Br",
    "CATEGORY": "N"
  },
  {
    "COMPOUND": "ClSC(Cl)(Cl)Cl",
    "CATEGORY": "N"
  },
  {
    "COMPOUND": "CCCCN(CCCC)C(=S)[S-].CCCCN(CCCC)C(=S)[S-].[Ni+2]",
    "CATEGORY": "N"
  },
  {
    "COMPOUND": "CC(Cc1ccc2c(c1)OCO2)NO (configuration not stated)",
    "CATEGORY": "N"
  },
  {
    "COMPOUND": "N#Cc1sc2c(=O)c3ccccc3c(=O)c=2sc1C#N",
    "CATEGORY": "Y"
  },
  {
    "COMPOUND": "CCCCn1cc[n+](C)c1.[Cl][Fe-]([Cl])([Cl])[Cl]",
    "CATEGORY": "N"
  },
  {
    "COMPOUND": "C=CC(=O)[O][Sn]([CH2]CCC)([CH2]CCC)[CH2]CCC",
    "CATEGORY": "Y"
  },
  {
    "COMPOUND": "CNC(=O)/C=C(\\C)OP(=O)(OC)OC",
    "CATEGORY": "N"
  },
  {
    "COMPOUND": "O=[N+]([O-])c1cc(C(F)(F)F)c(Cl)c([N+](=O)[O-])c1Nc1ncc(C(F)(F)F)cc1Cl",
    "CATEGORY": "Y"
  },
  {
    "COMPOUND": "CC1=C2C[C@H]3[C@@H](CC=C4C[C@@H](O)CC[C@@]43C)[C@@H]2CC[C@]12O[C@@H]1C[C@H](C)CN[C@H]1[C@H]2C",
    "CATEGORY": "N"
  },
  {
    "COMPOUND": "Oc1ccc([C@H]2CNCc3c2ccc(O)c3O)cc1O",
    "CATEGORY": "N"
  },
  {
    "COMPOUND": "CCOC(=O)Cc1ccccc1",
    "CATEGORY": "N"
  },
  {
    "COMPOUND": "COc1c2c(cc3c1OCO3)CCN(C)C2",
    "CATEGORY": "N"
  },
  {
    "COMPOUND": "CN",
    "CATEGORY": "N"
  }
]
